# System: AGS cells (KRAS G12D)
# test_method_notes: Cell viability assay (Cell Counting Kit-8, 3-day)
# Format: cell-based, human
# condition_notes: Homo sapiens, 72 h, 72 hrs incubation
# Description: The purpose of this cellular assay was to determine the effects of test compounds on the proliferation of human cancer cell lines NCI-H358 (ATCC-CRL5807) cells, AGS (ATCC-CRL-1739) cells, SW620 (ATCC-CCL-227) over a 3-day treatment period by quantifying the amount of NADPH present at endpoint using Cell Counting Kit-8. Cells were seeded at 5,000 cells/well (NCI-H358), 2,000 cells/well (AGS) 2,000 cells/well (SW620) in 96-well assay plates (Corning-3699) and incubated overnight. […]
property: IC50
Remember to quote the unit after the number.

molecule | property | assay_result
CO[C@@H](C)c1ncc(N2CCOCC2)cc1-c1c2c3cc(cc4c3n1C[C@@H](O)C4)-c1csc(n1)C[C@H](NC(=O)[C@H]1[C@H](C)[C@@H]1C)C(=O)N1CCC[C@H](N1)C(=O)OCC(C)(C)C2 (atropisomer, axis not shown; (M)) [Example 107] | IC50 | 0.0054 µM
CO[C@@H](C)c1ncc(N2CCN(CC(F)(F)F)CC2)cc1-c1c2c3cc(cc4c3n1CCO4)-c1csc(n1)C[C@H](NC(=O)[C@H]1[C@@H]3COC[C@@H]31)C(=O)N1CCC[C@H](N1)C(=O)OCC(C)(C)C2 (atropisomer, axis not shown; (M)) [Example 12] | IC50 | 0.025 µM
CO[C@@H](C)c1ncc(N2CCN(C)CC2)cc1-c1c2c3cc(cc4c3n1CCO4)-c1csc(n1)C[C@H](NC(=O)C1(C)CC1(F)F)C(=O)N1CCC[C@H](N1)C(=O)OCC(C)(C)C2 (stereo partly shown) [Example 54] | IC50 | 0.0368 µM

According to the records, this molecule CO[C@@H](C)c1ncc(N2CCN(C)CC2)cc1-c1c2c3cc(cc4c3n1CCC4)-c1csc(n1)C[C@H](NC(=O)[C@@H]1C[C@H]1c1cncc(C)c1)C(=O)N1CCC[C@H](N1)C(=O)OCC(C)(C)C2 (atropisomer, axis not shown; (M)) [Example 120] displays IC50 of 0.0022 µM
